Read-out: Plasminogen activator inhibitor-1 (PAI1), SERPINE1 (gene 5054)
Assay: BSK_BE3C_PAI1: BioMAP Diversity Plus: BE3C Assay for Plasminogen activator inhibitor-1 (PAI1) Biomarker Activity (AID 2283037)
Details: primary human bronchial epithelial cells; actives raise or lower the signal
Activity calls are given as the source filed them. Rule for the calls: active = hit-call score of the fitted dose curve at least 0.9, where 1 is the maximum; inactive = score below 0.9.
In this exercise, the only acceptable responses are YES (active), NO (inactive)

CC(=O)O[C@]1(C(C)=O)CC[C@H]2[C@@H]3C=C(Cl)C4=CC(=O)[C@@H]5C[C@@H]5[C@]4(C)[C@H]3CC[C@@]21C :: YES

Problem: # fetch the recorded call for CCCCCCCCCCCCCCOS(=O)(=O)O here
Result: YES

Problem: # fetch the recorded call for OCC(CO)n1cnc(-c2ccc(F)cc2)c1-c1ccnc(Oc2ccccc2)n1 here
Result: YES

Problem: # fetch the recorded call for CC(N)=O here
Result: NO

###

Experiment: LTEA_HepaRG_LDH_cytotoxicity: Cytotoxicity Assessment in the Life Technologies and Expression Analysis (LTEA) Assay (AID 2283563)
Method: LTEA_HepaRG is a cell based, multiplexed-readout assay that uses HepaRG, a human liver cell line, with measurements taken at 48 hours after chemical dosing on a 96-well plate.LTEA_HepaRG_LDH_cytotoxicity is one of 102 assay component(s) measured in the LTEA HepaRG cell culture assay. It is a marker of cell viability / cytotoxicity.Data from the assay component LTEA_HepaRG_LDH_cytotoxicity was analyzed into 1 endpoint. […]
The source made the active and inactive calls. How the source made its calls: active means hit-call score of the fitted dose curve at least 0.9, where 1 is the maximum; inconclusive means response in the unintended direction; inactive means score below 0.9.
In this exercise, the only acceptable responses are active, inactive

Worked set:
CCCCCCCC(=O)OC :: inactive
NC1CCCCC1 :: inactive

Problem: # fetch the recorded call for CC(=O)OCC(COC(C)=O)OC(C)=O here
Result: inactive

Problem: # fetch the recorded call for C/C=C/C=C/C(=O)O here
Result: inactive

Problem: # fetch the recorded call for CCCC[C@H]1CN(CC2CCOCC2)C(=O)OC12CCN(C1(C)CCN(C(=O)c3c(C)ncnc3C)CC1)CC2 here
Result: inactive

Problem: # fetch the recorded call for COc1ccc(OC(F)(F)F)cc1CN[C@H]1CCCN[C@H]1c1ccccc1 here
Result: active

Problem: # fetch the recorded call for O=C1OC(c2ccc(O)cc2)(c2ccc(O)cc2)c2ccccc21 here
Result: inactive

###

Read-out: solute carrier (SLCO1B1), SLCO1B1 (gene 10599)
Test: LTEA_HepaRG_SLCO1B1: Life Technologies and Expression Analysis (LTEA) Assay for solute carrier (SLCO1B1) using HepaRG (AID 2283530)
Settings: mRNA level, 48 h; actives raise or lower the signal
Active and inactive are the calls of the source. The calls were made as follows: active = hit-call score of the fitted dose curve at least 0.9, where 1 is the maximum; inactive = score below 0.9.
Outcome measure: AC50

Known results for compounds:
CCCCOC(=O)CCCCC(=O)OCCCC :: inactive
COC(=O)CCC(=O)OC :: inactive
O=NO :: inactive
CC(C)(C)c1ccccc1 :: inactive
C=CCCCCCCCCCCCC :: inactive

Please look at the items below and tell me AC50 for each one, in order.
1. CN(C)C(=O)NC1(c2ccccc2)CCN(CC[C@@]2(c3ccc(F)c(F)c3)CN(C(=O)c3ccccc3)CCO2)CC1
2. O=Cc1ccccc1C=O
3. CC(COCC(C)OC(=O)c1ccccc1)OC(=O)c1ccccc1 (centres undefined)

Result:
["inactive", "inactive", "inactive"]

Please look at the items below and tell me AC50 for each one, in order.
1. N[C@@H](Cc1c[nH]c2ccccc12)C(=O)O
2. Oc1ccc(O)cc1

Result:
["inactive", "inactive"]

Please look at the items below and tell me AC50 for each one, in order.
1. NCCOCCOCCN
2. Cn1cnc2c1c(=O)[nH]c(=O)n2C
3. Cc1cn([C@H]2C=C[C@@H](CO)O2)c(=O)[nH]c1=O
4. CC1=C(C)S(=O)(=O)CCS1(=O)=O

Result:
inactive
inactive
inactive
88.2 µM (active)

###

System: guinea pig Histamine Receptor (H2), gene 100729734
Test: NVS_GPCR_gH2: NovaScreen (NVS) G Protein-Coupled Receptor Assay for guinea pig Histamine Receptor (H2) (AID 2283342)
Inconclusive results are not listed. Calls of active or inactive are those of the source. How the source made its calls: active means hit-call score of the fitted dose curve at least 0.9, where 1 is the maximum; inconclusive means response in the unintended direction; inactive means score below 0.9.
In this exercise, the only acceptable responses are active, inactive

Worked set:
CCCCc1nc2cccnc2n1Cc1ccc(-c2ccccc2-c2nnn[nH]2)cc1 :: inactive
CCN(CC)CCOc1ccc(C(=C(Cl)c2ccccc2)c2ccccc2)cc1 :: active
CN(C)C(=O)NC1(c2ccccc2)CCN(CCC[C@]2(c3ccc(Cl)c(Cl)c3)CCCN(C(=O)c3ccccc3)C2)CC1 :: active
CS(=O)(=O)c1ccc([C@@H](C[C@H]2CCC(=O)C2)C(=O)Nc2cnccn2)cc1Cl :: active

Field: next compound
Problem: # fetch the recorded call for CSc1ccc(Oc2ccc(S(N)(=O)=O)cc2CN(C)C)cc1C here
Result: active

###

Read-out: CYP3A5 (gene 1577)
Test: LTEA_HepaRG_CYP3A5: Life Technologies and Expression Analysis (LTEA) Assay for CYP3A5 using HepaRG (AID 2283493)
Settings: mRNA level, 48 h; actives raise or lower the signal
Active and inactive are the calls of the source. Rule for the calls: active = hit-call score of the fitted dose curve at least 0.9, where 1 is the maximum; inactive = score below 0.9.
In this exercise, the only acceptable responses are active, inactive

Problem: # fetch the recorded call for CC(=O)CC(c1ccccc1)c1c(O)c2ccccc2oc1=O (stereo unspecified) here
Result: inactive

Problem: # fetch the recorded call for C=CCCCCCCCCCCCC here
Result: inactive

Problem: # fetch the recorded call for C#CC(O)C(CC)CCCC (stereo unspecified) here
Result: inactive

Problem: # fetch the recorded call for CCCCCCC(C=O)=Cc1ccccc1 here
Result: inactive

###

Molecular target: rat Opioid Receptor, Non-selective Binding, Oprm1 (gene 25601) (UniProt P33535)
Sequence (P33535 whole entry, looked up): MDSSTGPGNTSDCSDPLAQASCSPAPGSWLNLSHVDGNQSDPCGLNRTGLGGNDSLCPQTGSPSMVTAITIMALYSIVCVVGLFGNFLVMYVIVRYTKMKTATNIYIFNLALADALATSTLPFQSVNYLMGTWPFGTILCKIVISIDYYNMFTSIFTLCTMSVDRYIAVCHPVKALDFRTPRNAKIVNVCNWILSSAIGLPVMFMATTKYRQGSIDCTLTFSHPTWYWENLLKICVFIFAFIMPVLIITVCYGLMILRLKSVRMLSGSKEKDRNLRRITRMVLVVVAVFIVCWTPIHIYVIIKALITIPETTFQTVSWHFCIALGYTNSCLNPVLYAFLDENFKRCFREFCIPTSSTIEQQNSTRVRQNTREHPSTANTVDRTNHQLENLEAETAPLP
Test: NVS_GPCR_rOpiate_NonSelective: NovaScreen (NVS) G Protein-Coupled Receptor Assay for rat Opioid Receptor, Non-selective Binding (AID 2283318)
Results filed as inconclusive are left out. Calls of active or inactive are those of the source. How the source made its calls: active means hit-call score of the fitted dose curve at least 0.9, where 1 is the maximum; inconclusive means response in the unintended direction; inactive means score below 0.9.
In this exercise, the only acceptable responses are active, inactive

Worked set:
CCc1nc(N)nc(N)c1-c1ccc(Cl)cc1 :: inactive
O=C1OC(c2ccc(O)cc2)(c2ccc(O)cc2)c2ccccc21 :: active
CSc1ccc(Oc2ccc(S(N)(=O)=O)cc2CN(C)C)cc1C :: active
O=C(N[C@@H](c1ccccc1)[C@@H]1CCCCN1)c1cccc(C(F)(F)F)c1Cl :: active
Cc1cc(SC2=C(O)C[C@@](CCc3ccc(N)cc3)(C(C)C)OC2=O)c(C(C)(C)C)cc1CO :: inactive
COC(=O)[C@H]1[C@H]2C[C@@H]3c4[nH]c5cc(OC)ccc5c4CCN3C[C@H]2C[C@@H](OC(=O)c2cc(OC)c(OC)c(OC)c2)[C@@H]1OC :: active
CC(=O)O[C@]1(C(C)=O)CC[C@H]2[C@@H]3C=C(Cl)C4=CC(=O)[C@@H]5C[C@@H]5[C@]4(C)[C@H]3CC[C@@]21C :: active
NC(=Nc1ccccc1)Nc1ccccc1 :: inactive

Field: next compound
Problem: # fetch the recorded call for COc1ccc(OC(F)(F)F)cc1CN[C@H]1CCCN[C@H]1c1ccccc1 here
Result: active

###

Read-out: CD40, CD40 (gene 958)
Experiment: BSK_SAg_CD40: BioMAP Diversity Plus: SAg Assay for CD40 Biomarker Activity (AID 2283088)
Conditions: primary human HUVEC with PBMC; actives raise or lower the signal
Calls of active or inactive are those of the source. How the source made its calls: active means hit-call score of the fitted dose curve at least 0.9, where 1 is the maximum; inactive means score below 0.9.
Outcome measure: AC50

O=Cc1ccccc1C=O :: inactive
CN(C)CCCN1c2ccccc2Sc2ccc(Cl)cc21 :: 29.5 µM (active)
CCCCCCCCCC[N+](C)(C)[O-] :: inactive
CC(C)(C)c1ccccc1 :: inactive
Cc1ccc(-c2cc(C(F)(F)F)nn2-c2ccc(S(N)(=O)=O)cc2)cc1 :: 27.3 µM (active)

Please look at the items below and tell me AC50 for each one, in order.
1. N[C@@H](Cc1c[nH]c2ccccc12)C(=O)O
2. CC(C)c1cccc(C(C)C)c1NC(=O)NS(=O)(=O)c1cc(C(C)(C)O)co1
3. C=CCCCCCCCCCCCC
4. CCOCCOCCO
5. CC(C)NCC(O)c1ccc(O)c(O)c1 (configuration not stated)
6. CCC(C)N(C)C(=O)c1cc2ccccc2c(-c2ccccc2Cl)n1 (configuration not stated)

Result:
1: inactive; 2: inactive; 3: inactive; 4: inactive; 5: inactive; 6: inactive

Please look at the items below and tell me AC50 for each one, in order.
1. CCc1cc(C2=C(C(=O)O)N(c3ccccc3C(F)(F)F)S(=O)(=O)c3ccccc32)cc2c1OCO2
2. Cc1c(C)c2c(c(C)c1O)CCC(C)(COc1ccc(CC3SC(=O)NC3=O)cc1)O2 (configuration not stated)
3. CC(C)c1cccc(C(C)C)c1
4. Cc1occc(=O)c1O
5. COC(=O)CCCC(=O)OC
6. CCCCCCCC(=O)OC
7. CCc1nc(N)nc(N)c1-c1ccc(Cl)cc1
8. O=C(O)CC(O)(CC(=O)O)C(=O)O

Result:
1. inactive
2. 14.9 µM (active)
3. inactive
4. inactive
5. inactive
6. inactive
7. inactive
8. inactive
